molecular target: PIM2 (human) (UniProt Q9P1W9); assay: KINOMEscan competition binding; details: compound 10.0 µM
Sequence (Q9P1W9 whole entry, looked up): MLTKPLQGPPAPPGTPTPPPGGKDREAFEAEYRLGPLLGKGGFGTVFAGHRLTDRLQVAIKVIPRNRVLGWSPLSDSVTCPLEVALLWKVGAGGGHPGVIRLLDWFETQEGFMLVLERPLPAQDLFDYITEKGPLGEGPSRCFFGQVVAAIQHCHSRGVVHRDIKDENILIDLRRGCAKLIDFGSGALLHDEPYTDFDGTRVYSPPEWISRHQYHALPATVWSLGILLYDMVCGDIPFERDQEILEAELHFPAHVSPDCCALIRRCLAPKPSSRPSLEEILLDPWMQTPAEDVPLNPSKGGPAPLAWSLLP
Grouping by measured kinase still bound, per cent of control is done with the following cut points: band 1: < 1%; band 2: ≥ 1% and < 3%; band 3: ≥ 3%

- molecule: "CS(=O)(=O)Nc1ccc(-c2ccc(/C=C3\\SC(=N)NC3=O)o2)cc1"
  discrete_label: "band 1"
- molecule: "COc1cc(N2CCN(C)CC2)ccc1Nc1ncc2c(n1)N(C)c1sccc1C(=O)N2C"
  discrete_label: "band 3"
- molecule: "NS(=O)(=O)c1ccc(-c2cccc(/C=C3\\SC(=O)NC3=O)c2)cc1"
  discrete_label: "band 2"
- molecule: "Cc1cn(-c2cc(NC(=O)c3cccc4cc(-c5ccc(/C=C6\\SC(=N)NC6=O)o5)ccc34)cc(C(F)(F)F)c2)cn1"
  discrete_label: "band 1"
- molecule: "O=C1NC(=O)/C(=C/c2ccc(-c3ccc(F)cc3O)o2)S1"
  discrete_label: "band 2"
- molecule: "N=C1NC(=O)/C(=C/c2c[nH]c(=O)c(-c3ccc(N4CCNCC4)nc3)c2)S1"
  discrete_label: "band 2"
- molecule: "N=C1NC(=O)/C(=C/c2ccc(-c3ccccc3O)o2)S1"
  discrete_label: "band 2"
- molecule: "CC(=O)Nc1ccc(-c2ccc(/C=C3\\SC(=N)NC3=O)o2)c(O)c1"
  discrete_label: "band 2"
- molecule: "CS(=O)(=O)Nc1ccc(-c2cccc(/C=C3\\SC(=N)NC3=O)n2)cc1"
  discrete_label: "band 3"
- molecule: "O=C1NC(=O)/C(=C/c2c[nH]c(=O)c(-c3ccc(C(=O)Nc4ccc(N5CCNCC5)cc4)cc3)c2)S1"
  discrete_label: "band 2"
- molecule: "CN(C)C1=NC(=O)/C(=C/c2ccc(-c3ccc(S(N)(=O)=O)cc3)o2)S1"
  discrete_label: "band 3"
- molecule: "O=C1NC(=O)/C(=C/c2ccc(-c3ccc(C(=O)Nc4ccc(N5CCNCC5)cc4)cc3)o2)S1"
  discrete_label: "band 1"
- molecule: "N=C1NC(=O)/C(=C/c2ccc(-c3ccc(F)cc3)o2)S1"
  discrete_label: "band 2"
- molecule: "CN1CCN(c2ccc(C(=O)Nc3ncc4c(n3)N(C)c3ccccc3C(=O)N4C)cc2)CC1"
  discrete_label: "band 3"
- molecule: "O=C1NC(=O)/C(=C/c2c[nH]c(=O)c(-c3ccc(N4CCNCC4)nc3)c2)S1"
  discrete_label: "band 2"
- molecule: "CS(=O)(=O)Nc1ccc(-c2ncc(/C=C3\\SC(=N)NC3=O)s2)cc1"
  discrete_label: "band 3"
- molecule: "CS(=O)(=O)Nc1ccc(-c2cc(/C=C3\\SC(=N)NC3=O)c[nH]c2=O)cc1"
  discrete_label: "band 3"
- molecule: "N=C1NC(=O)/C(=C/c2ccc(-c3ccc(F)cc3O)o2)S1"
  discrete_label: "band 2"
- molecule: "COc1cc(N2CCN(C)CC2)ccc1Nc1ncc2c(n1)N(C)c1ccccc1N(C)C2=O"
  discrete_label: "band 3"
- molecule: "COc1cc(N2CCN(C)CC2)ccc1Nc1ncc2c(n1)Nc1ccccc1NC2=O"
  discrete_label: "band 3"
- molecule: "CS(=O)C1=NC(=O)/C(=C/c2ccc(-c3ccc(S(N)(=O)=O)cc3)o2)S1 (stereo not given)"
  discrete_label: "band 3"
- molecule: "N=C1NC(=O)/C(=C/c2ccc(-c3cnc4ccccc4c3)o2)S1"
  discrete_label: "band 2"
- molecule: "CS(=O)(=O)Nc1ccc(-c2ccc(/C=C3\\SC(=N)NC3=O)o2)c(O)c1"
  discrete_label: "band 1"
- molecule: "N=C1NC(=O)/C(=C/c2ccc(-c3ccc(Cl)cc3)o2)S1"
  discrete_label: "band 2"
- molecule: "CN1C(=N)NC(=O)/C1=C/c1ccc(-c2cccc3ccccc23)o1"
  discrete_label: "band 2"
- molecule: "N=C1NC(=O)/C(=C/c2c[nH]c(=O)c(-c3ccc4cc[nH]c4c3)c2)S1"
  discrete_label: "band 3"
- molecule: "CN1C(=O)c2ccccc2N(C)c2nc(Nc3ccc(N4CCC(O)CC4)cc3)ncc21"
  discrete_label: "band 3"
- molecule: "NS(=O)(=O)c1ccc(-c2ccc(/C=C3\\SC(=O)NC3=O)o2)cc1"
  discrete_label: "band 1"
- molecule: "O=C1NC(=S)S/C1=C\\c1ccc(-c2cncc3ccccc23)o1"
  discrete_label: "band 1"
- molecule: "CN1C(=O)c2ccccc2N(C)c2nc(NS(=O)(=O)c3ccc(N)cc3)ncc21"
  discrete_label: "band 3"
- molecule: "N=C1NC(=O)/C(=C/c2ccc(-c3ccc(C(N)=O)cc3O)o2)S1"
  discrete_label: "band 1"
- molecule: "CSC1=NC(=O)/C(=C/c2c[nH]c(=O)c(-c3ccc(NS(C)(=O)=O)cc3)c2)S1"
  discrete_label: "band 2"
- molecule: "N=C1NC(=O)/C(=C/c2ccc(-c3csc4ccccc34)o2)S1"
  discrete_label: "band 1"
- molecule: "O=C1NC(=O)/C(=C/c2ccc(-c3ccc4c(C(=O)Nc5cccc(C(F)(F)F)c5)cccc4c3)o2)S1"
  discrete_label: "band 1"
- molecule: "N=C1NC(=O)/C(=C/c2ccc(-c3cccc4cc[nH]c34)o2)S1"
  discrete_label: "band 1"
- molecule: "N=C1NC(=O)/C(=C/c2ccc(-c3cncc4ccccc34)o2)S1"
  discrete_label: "band 1"
- molecule: "O=C1NC(=O)/C(=C/c2cc(-c3ccc(N4CCNCC4)nc3)c[nH]c2=O)S1"
  discrete_label: "band 3"
- molecule: "N=C1NC(=O)/C(=C/c2ccc(-c3ccc(C(=O)Nc4ccc(N5CCNCC5)cc4)cc3O)o2)S1"
  discrete_label: "band 1"

====

target: FLT3 (human); experiment: KINOMEscan competition binding; details: compound 10.0 µM
parameter: kinase still bound, per cent of control (%)

- query_smiles: "CN1C(=O)c2ccccc2N(C)c2nc(NS(=O)(=O)c3ccc(N)cc3)ncc21"
  endpoint_unit: "%"
  readout_number: 100
- query_smiles: "COc1cc(N2CCN(C)CC2)ccc1Nc1ncc2c(n1)N(C(C)C)c1ccccc1C(=O)N2"
  endpoint_unit: "%"
  readout_number: 13
- query_smiles: "COc1cc(N2CCN(C)CC2)ccc1Nc1ncc2c(n1)Nc1ccccc1NC2=O"
  endpoint_unit: "%"
  readout_number: 69
- query_smiles: "CC(C)Oc1cc(N2CCN(C)CC2)ccc1Nc1ncc2c(n1)N(C)c1ccccc1C(=O)N2"
  endpoint_unit: "%"
  readout_number: 10
- query_smiles: "CS(=O)(=O)Nc1ccc(-c2cc(/C=C3\\SC(=N)NC3=O)c[nH]c2=O)cc1"
  endpoint_unit: "%"
  readout_number: 8.6
- query_smiles: "COc1cc(N2CCC(O)CC2)ccc1Nc1ncc2c(n1)N1CCc3cccc(c31)C(=O)N2C"
  endpoint_unit: "%"
  readout_number: 95
- query_smiles: "N=C1NC(=O)/C(=C/c2ccc(-c3cncc4ccccc34)o2)S1"
  endpoint_unit: "%"
  readout_number: 10
- query_smiles: "CN1C(=O)c2ccccc2N(C)c2nc(Nc3ccc(N4CCC(O)CC4)cc3)ncc21"
  endpoint_unit: "%"
  readout_number: 100
- query_smiles: "CN1C(=O)c2ccccc2N(C)c2nc(Nc3ccc(N4CCC(O)CC4)cn3)ncc21"
  endpoint_unit: "%"
  readout_number: 8.1

====

biological target: BMPR1A (human) (UniProt P36894); experiment: KINOMEscan competition binding; settings: compound 10.0 µM
Sequence (P36894 whole entry, looked up): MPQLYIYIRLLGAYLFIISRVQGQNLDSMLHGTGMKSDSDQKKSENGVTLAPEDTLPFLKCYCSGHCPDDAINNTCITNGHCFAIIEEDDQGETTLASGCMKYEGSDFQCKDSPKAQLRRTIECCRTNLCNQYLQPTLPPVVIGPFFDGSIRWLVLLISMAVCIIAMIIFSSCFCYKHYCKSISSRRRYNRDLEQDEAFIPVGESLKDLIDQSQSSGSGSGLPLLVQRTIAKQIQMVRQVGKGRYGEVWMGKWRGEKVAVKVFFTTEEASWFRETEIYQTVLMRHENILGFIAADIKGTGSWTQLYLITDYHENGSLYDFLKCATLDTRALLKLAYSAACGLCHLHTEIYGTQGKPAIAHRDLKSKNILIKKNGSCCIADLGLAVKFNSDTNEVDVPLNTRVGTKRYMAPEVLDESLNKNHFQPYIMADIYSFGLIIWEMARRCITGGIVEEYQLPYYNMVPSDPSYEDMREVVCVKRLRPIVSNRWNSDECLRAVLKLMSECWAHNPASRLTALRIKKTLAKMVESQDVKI
Below, each entry is listed with its recorded kinase still bound, per cent of control.

- query_smiles: "CN1C(=O)c2ccccc2N(C)c2nc(Nc3ccc(N4CCC(O)CC4)cc3)ncc21"
  kinase still bound, per cent of control (%): 61
- query_smiles: "O=C1NC(=O)/C(=C/c2c[nH]c(=O)c(-c3ccc(N4CCNCC4)nc3)c2)S1"
  kinase still bound, per cent of control (%): 100
- query_smiles: "CS(=O)(=O)Nc1ccc(-c2cc(/C=C3\\SC(=N)NC3=O)c[nH]c2=O)cc1"
  kinase still bound, per cent of control (%): 8
- query_smiles: "COc1cc(N2CCN(C)CC2)ccc1Nc1ncc2c(n1)Nc1ccccc1NC2=O"
  kinase still bound, per cent of control (%): 80
- query_smiles: "N=C1NC(=O)/C(=C/c2ccc(-c3cncc4ccccc34)o2)S1"
  kinase still bound, per cent of control (%): 33

====

Reported kinase still bound, per cent of control values for the following molecules.
molecular target: PLK4 (human) (UniProt O00444); test: KINOMEscan competition binding; conditions: compound 10.0 µM
Sequence (O00444 whole entry, looked up): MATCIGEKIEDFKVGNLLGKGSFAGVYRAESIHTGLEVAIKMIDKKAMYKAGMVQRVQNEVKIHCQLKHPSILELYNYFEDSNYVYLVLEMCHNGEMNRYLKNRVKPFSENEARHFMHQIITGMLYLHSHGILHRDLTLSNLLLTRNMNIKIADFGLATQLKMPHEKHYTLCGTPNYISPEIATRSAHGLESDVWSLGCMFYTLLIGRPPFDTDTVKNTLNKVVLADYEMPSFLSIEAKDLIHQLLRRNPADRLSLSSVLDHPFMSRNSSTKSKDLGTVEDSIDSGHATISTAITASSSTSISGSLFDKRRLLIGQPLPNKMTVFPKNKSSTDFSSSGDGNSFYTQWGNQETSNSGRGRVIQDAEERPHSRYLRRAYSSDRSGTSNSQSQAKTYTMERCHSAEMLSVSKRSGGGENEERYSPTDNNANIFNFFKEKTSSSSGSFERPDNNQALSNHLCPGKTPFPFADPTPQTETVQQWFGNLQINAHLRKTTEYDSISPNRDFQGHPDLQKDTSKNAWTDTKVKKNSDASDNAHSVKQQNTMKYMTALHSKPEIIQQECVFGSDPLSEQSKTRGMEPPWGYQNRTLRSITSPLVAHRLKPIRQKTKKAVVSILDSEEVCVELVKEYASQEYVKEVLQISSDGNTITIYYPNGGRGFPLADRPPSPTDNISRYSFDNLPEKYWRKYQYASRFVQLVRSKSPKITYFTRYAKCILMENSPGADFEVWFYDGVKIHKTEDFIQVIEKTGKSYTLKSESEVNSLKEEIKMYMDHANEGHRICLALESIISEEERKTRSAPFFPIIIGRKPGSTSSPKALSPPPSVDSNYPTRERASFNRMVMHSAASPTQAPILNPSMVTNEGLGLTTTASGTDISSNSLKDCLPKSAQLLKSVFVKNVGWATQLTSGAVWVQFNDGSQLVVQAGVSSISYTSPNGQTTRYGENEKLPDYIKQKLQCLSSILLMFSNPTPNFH
parameter: kinase still bound, per cent of control (%)

- molecule: "COc1cc(N2CCC(O)CC2)ccc1Nc1ncc2c(n1)N(C1CCCC1)CCC(=O)N2C"
  readout_number: 8.3
- molecule: "N=C1NC(=O)/C(=C/c2ccc(-c3ccc(C(N)=O)cc3O)o2)S1"
  readout_number: 8.8
- molecule: "COc1cc(N2CCC(C)(O)CC2)ccc1Nc1ncc2c(n1)N(C1CCCC1)CCC(=O)N2C"
  readout_number: 8.2
- molecule: "CN1C(=O)c2ccccc2N(C)c2nc(NS(=O)(=O)c3ccc(N)cc3)ncc21"
  readout_number: 97
- molecule: "COc1cc(N2CCC(C(N)=O)CC2)ccc1Nc1ncc2c(n1)N(C1CCCC1)[C@@H]1CCC[C@@H]1C(=O)N2C"
  readout_number: 28
- molecule: "N=C1NC(=O)/C(=C/c2ccc(-c3cccc4cc[nH]c34)o2)S1"
  readout_number: 18
- molecule: "CSC1=NC(=O)/C(=C/c2ccc(-c3ccc(S(N)(=O)=O)cc3)o2)S1"
  readout_number: 0.05
- molecule: "CCOc1cc(N2CCC(O)CC2)ccc1Nc1ncc2c(n1)N(C1CCCC1)CCC(=O)N2C"
  readout_number: 27
- molecule: "CS(=O)(=O)Nc1ccc(-c2cncc(/C=C3\\SC(=N)NC3=O)c2)cc1"
  readout_number: 5.6
- molecule: "COc1cc(C(=O)NC2CCN(C)CC2)ccc1Nc1ncc2c(n1)N(C1CCCC1)CC(C)C(=O)N2C (centres undefined)"
  readout_number: 16
- molecule: "N=C1NC(=O)/C(=C/c2ccc(-c3cncc4ccccc34)o2)S1"
  readout_number: 0.95
- molecule: "Cc1cn(-c2cc(NC(=O)c3cccc4cc(-c5ccc(/C=C6\\SC(=N)NC6=O)o5)ccc34)cc(C(F)(F)F)c2)cn1"
  readout_number: 1
- molecule: "COc1cc(N2CCN(C)CC2)ccc1Nc1ncc2c(n1)N(C(C)C)c1ccccc1C(=O)N2C"
  readout_number: 0.15
- molecule: "NS(=O)(=O)c1ccc(-c2ccc(/C=C3\\SC(=S)NC3=O)o2)cc1"
  readout_number: 14
- molecule: "N=C1NC(=O)/C(=C/c2c[nH]c(=O)c(-c3ccc(S(N)(=O)=O)cc3)c2)S1"
  readout_number: 24
- molecule: "CN1C(=O)c2ccccc2N(C)c2nc(Nc3ccc(N4CCC(O)CC4)cn3)ncc21"
  readout_number: 7.2
- molecule: "CN1C(=O)c2ccccc2N(C)c2nc(Nc3ccc(N4CCC(O)CC4)cc3)ncc21"
  readout_number: 1.8
- molecule: "CN1C(=O)[C@H]2CCC[C@H]2N(C2CCCC2)c2nc(Nc3ccc(C(N)=O)cc3)ncc21"
  readout_number: 1.6
- molecule: "COc1cc(N2CCC(O)CC2)ccc1Nc1ncc2c(n1)N1CCc3cccc(c31)C(=O)N2C"
  readout_number: 5.4
